Cited source for all entries: patent US20250296971A1

# MEASURED ON: human Gastric Inhibitory Peptide Receptor (human) (UniProt P48546)
# Sequence (P48546 22-466 limits assumed): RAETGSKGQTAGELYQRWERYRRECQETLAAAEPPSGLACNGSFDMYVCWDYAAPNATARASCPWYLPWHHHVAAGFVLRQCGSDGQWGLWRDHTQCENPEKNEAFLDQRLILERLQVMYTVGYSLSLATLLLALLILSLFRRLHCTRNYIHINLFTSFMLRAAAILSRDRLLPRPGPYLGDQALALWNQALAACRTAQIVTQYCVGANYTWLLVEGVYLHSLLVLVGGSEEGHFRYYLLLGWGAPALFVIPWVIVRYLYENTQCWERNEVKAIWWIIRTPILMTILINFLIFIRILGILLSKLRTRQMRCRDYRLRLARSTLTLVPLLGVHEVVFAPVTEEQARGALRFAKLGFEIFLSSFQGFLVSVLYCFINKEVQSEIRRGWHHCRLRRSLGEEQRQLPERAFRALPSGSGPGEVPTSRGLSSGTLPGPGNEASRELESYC
# MEASUREMENT PROTOCOL: FACS competition with GIP-057 on CHO-K1-hGIPR cells; pIC50 category A: >8.0
*1 amine or outer side, *2 acyl side, *3 side chain or, on linkers, in order; H or OH if unused. Bridges are numbered along the chain shown (N, C = ends). [ ]: non-standard residue; d: D form. The star is where a group is joined. Ttds = 1,13-diamino-4,7,10-trioxatridecan-succinamic acid, NCCCOCCOCCOCCCNC(=O)CCC(=O)*; DOTA(In) = O=C1CN2CCN3CCN(CC(=O)*)CCN(CC2)CC(=O)[O][In]([O]1)[O]C(=O)C3; dE(AGLU) = D-glutamic acid bearing 1-amino-1-deoxy-D-glucitol; Pro(trans-4-NH2) = O=C([C@@H]1C[C@@H](N[*:3])CN1[*:1])[*:2]; DOTA = O=C(O)CN1CCN(CC(=O)O)CCN(CC(=O)*)CCN(CC(=O)O)CC1; 2Lut = 2,6-lutidylidene bridge between two thiols; Trp(5-Cl) = N[C@@H](Cc1c[nH]c2ccc(Cl)cc12)C(=O)O; Pyridine(2,6-diCH2) = c1cc(C[*:1])nc(C[*:2])c1; APAc = 4-amino-1-carboxymethylpiperidine; Pro(3S-OH) = O=C(O)[C@H]1NCC[C@@H]1O; mXylylene = c1cc(C[*:1])cc(C[*:2])c1; Glutaryl = O=C(CCCC(=O)[*:2])[*:1]; AGLU = 1-amino-1-deoxy-D-glucitol; Hyp = O=C(O)[C@@H]1C[C@@H](O)CN1; Cysteamide = C(CS[*:3])N[*:1]; Suc = O=C(CCC(=O)[*:2])[*:1]; Api = NC1(C(=O)O)CCNCC1; Thp = NC1(C(=O)O)CCOCC1; Aib = CC(C)(N)C(=O)O
METRIC: pIC50

Previously resolved entries follow.
Suc-W[Trp(5-Cl)][Hyp]E[dL]C[Api](DOTA)LI[Cysteamide] (linker 6-10 via 2Lut) [HO-Succinyl-Trp-5Clw-Hyp-Glu-leu-[Cys(2Lut)-Apc(DOTA)-Leu-Ile-AET]]: > 8 pic50
{DOTA(In)-Ttds}-DW[Trp(5-Cl)]PE[dL]C[Aib]LI[Cysteamide] (linker 7-11 via 2Lut; also: DOTA as indium complex (InDOTA)) [InDOTA-Ttds-Asp-Trp-5Clw-Pro-Glu-leu-[Cys(2Lut)-Aib-Leu-Ile-AET]]: > 8 pic50
Suc-W[Trp(5-Cl)][Hyp]E[dL]C[Thp]LIC-{APAc-Lys(InDOTA)-NH2} (linker 6-10 via 2Lut; also: In complex of DOTA) [HO-Succinyl-Trp-5Clw-Hyp-Glu-leu-[Cys(2Lut)-Thp-Leu-Ile-Cys]-APAc-Lys(InDOTA)-NH2]: > 8 pic50
{DOTA-Ttds}-DW[Trp(5-Cl)][Pro(3S-OH)]E[dL]C[Aib]LI[Cysteamide] (linker 7-11 via mXylylene) [DOTA-Ttds-Asp-Trp-5Clw-H3p-Glu-leu-[Cys(3MeBn)-Aib-Leu-Ile-AET]]: > 8 pic50

Sample {AGLU-Glutaryl-APAc}-DW[Trp(5-Cl)][Pro(trans-4-NH2)]E[dL]C[Api]LIC-{APAc-dE(AGLU)-NH2} (linker 7-11 via Pyridine(2,6-diCH2); not fully specified (residue 8); also: DOTA complexed with In (InDOTA)) ; pIC50 observed: > 8 pic50

Entry under test: Ac-DW[Trp(5-Cl)][Pro(trans-4-NH2)]E[dL]C[Thp]LIC-NH2 (linker 7-11 via Pyridine(2,6-diCH2); not fully specified (residue 4); printed as Ac-Asp-Trp-5Clw-Tap(AGLU-Glutar)-Glu-leu-[Cys(2Lut)-Thp-Leu-Ile-Cys]-NH2) [Ac-Asp-Trp-5Clw-Tap(AGLU-Glutar)-Glu-leu-[Cys(2Lut)-Thp-Leu-Ile-Cys]-NH2] . Its pIC50 was > 8 pic50
